Each recorded value in this set is attributed to patent US4760136A.

Assay: Acute toxicity, intravenous (once), ddY mice
Format: in vivo
Conditions: mouse, in vivo, iv, formulated per Preparation Example
Counter-ions that a name gives are not always drawn.
measureName: LD50

Provide reported LD50 for each item, in the same order as listed.
1. CCN(CC)CCC(=O)Oc1c2cccc(OC3OC(C)C4OC(c5ccccc5)OC4C3OC3OC(C)C(O)C(OC)C3O)c2c2oc(=O)c3c(C)ccc4oc(=O)c1c2c43 (centres unmarked) [Compound No. 8, Hydrochloride]
2. COC1C(O)C(C)OC(OC2C(Oc3cccc4c(OC(=O)C(C)CNC(=O)CN)c5c(=O)oc6ccc(C)c7c(=O)oc(c34)c5c67)OC(C)C3OC(c4ccccc4)OC32)C1O (centres unmarked)
3. COC1C(O)C(C)OC(OC2C(Oc3cccc4c(OC(=O)CCSC)c5c(=O)oc6ccc(C)c7c(=O)oc(c34)c5c67)OC(C)C3OC(c4ccccc4)OC32)C1O (centres unmarked)
4. COC1C(O)C(C)OC(OC2C(Oc3cccc4c(OC(=O)CC(C)C)c5c(=O)oc6ccc(C)c7c(=O)oc(c34)c5c67)OC(C)C3OC(c4cccc(Br)c4)OC32)C1O (centres unmarked)
5. CO[C@H]1[C@@H](O)[C@@H](C)O[C@H](O[C@H]2[C@H](Oc3cccc4c(OC(=O)CCC(=O)c5ccc(F)cc5)c5c(=O)oc6ccc(C)c7c(=O)oc(c34)c5c67)O[C@H](C)[C@@H]3OC(C)(C)O[C@@H]32)[C@@H]1O

1. ≥ 40 mg/kg
2. ≥ 40 mg/kg
3. ≥ 40 mg/kg
4. ≥ 80 mg/kg
5. ≥ 80 mg/kg
